Target: T1, human CD98 ECD (Homo sapiens, UniProt P08195)
T1 construct: Human CD98 ECD with C-terminal His-tag
T1 sequence (P08195 with tags, fused parts or gaps): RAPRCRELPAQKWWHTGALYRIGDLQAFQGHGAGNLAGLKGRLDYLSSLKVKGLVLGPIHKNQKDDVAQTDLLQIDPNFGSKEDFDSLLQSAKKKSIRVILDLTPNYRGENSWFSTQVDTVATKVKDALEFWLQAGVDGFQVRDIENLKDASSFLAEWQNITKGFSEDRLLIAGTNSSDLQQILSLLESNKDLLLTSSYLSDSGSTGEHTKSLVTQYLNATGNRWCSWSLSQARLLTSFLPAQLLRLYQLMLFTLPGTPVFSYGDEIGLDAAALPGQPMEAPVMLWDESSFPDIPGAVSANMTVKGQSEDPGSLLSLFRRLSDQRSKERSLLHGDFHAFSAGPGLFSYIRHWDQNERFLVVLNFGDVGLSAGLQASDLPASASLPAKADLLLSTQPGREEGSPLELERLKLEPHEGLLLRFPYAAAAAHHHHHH
Assay: Biacore surface plasmon resonance binding kinetics (anti-Fc capture)
Conditions: huCD98 ECD
MEASURED ATTRIBUTE: kd (s⁻¹)
Give the number; s⁻¹ is assumed, so skip it.

MOLECULE | kd / s⁻¹
huAb105: "heavy chain variable sequence of huAb105 is provided in SEQ ID NO: 111"; "light chain variable sequence ... in SEQ ID NO: 112" (antibody, V domains shown) VH: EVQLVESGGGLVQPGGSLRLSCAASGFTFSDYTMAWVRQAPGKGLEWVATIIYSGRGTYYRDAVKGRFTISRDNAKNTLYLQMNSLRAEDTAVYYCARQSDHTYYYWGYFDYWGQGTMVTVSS VL: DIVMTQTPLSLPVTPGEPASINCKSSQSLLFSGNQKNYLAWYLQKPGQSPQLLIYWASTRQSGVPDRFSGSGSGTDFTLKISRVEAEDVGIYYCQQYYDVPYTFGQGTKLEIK | 2.4e-05
huAb107: "heavy chain variable sequence of huAb107 is provided in SEQ ID NO: 114"; "light chain variable sequence ... in SEQ ID NO: 112" (antibody, V domains shown) VH: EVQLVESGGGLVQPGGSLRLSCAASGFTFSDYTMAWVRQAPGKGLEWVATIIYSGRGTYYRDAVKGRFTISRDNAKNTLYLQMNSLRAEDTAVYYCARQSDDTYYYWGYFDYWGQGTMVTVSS VL: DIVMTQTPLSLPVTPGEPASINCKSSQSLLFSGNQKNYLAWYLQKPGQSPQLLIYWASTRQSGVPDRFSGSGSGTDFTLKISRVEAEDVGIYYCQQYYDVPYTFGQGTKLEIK | 3.8e-05

Per the records, this molecule ( huAb15v2 (antibody, V domains shown) VH: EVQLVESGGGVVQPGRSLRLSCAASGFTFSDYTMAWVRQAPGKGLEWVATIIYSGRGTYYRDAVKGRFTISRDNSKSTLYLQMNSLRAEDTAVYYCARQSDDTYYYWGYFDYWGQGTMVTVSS VL: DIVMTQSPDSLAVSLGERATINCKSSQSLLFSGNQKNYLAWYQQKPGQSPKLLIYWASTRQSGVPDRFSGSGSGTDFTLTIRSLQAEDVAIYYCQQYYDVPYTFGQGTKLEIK ) has kd equal to 4.6e-05
